Header: pIC50 / Leucine-rich repeat serine/threonine-protein kinase 2 (Homo sapiens, UniProt Q5S007) / multiple publications
pIC50: −log10 of the molar value.

Exam item: Request - read-out pIC50 | tested on Leucine-rich repeat serine/threonine-protein kinase 2 (Homo sapiens, UniProt Q5S007) | compound CCc1cc(N2CCN(C)CC2)ccc1Nc1ncc(C(F)(F)F)c(NCCCN2CCOCCC2=O)n1
Marked response: 6.52 to 7.00

Exam item: Request - read-out pIC50 | tested on Leucine-rich repeat serine/threonine-protein kinase 2 (Homo sapiens, UniProt Q5S007) | compound Cc1c2c(nn1[C@H]1CCCCOC1)OCCCn1nc(Cl)c3cnc(nc31)N2 (single isomer, unassigned)
Marked response: 7.60

Exam item: Request - read-out pIC50 | tested on Leucine-rich repeat serine/threonine-protein kinase 2 (Homo sapiens, UniProt Q5S007) | compound Cc1c2c(nn1C1CCC(F)(F)CC1)OCCCn1nc(Cl)c3cnc(nc31)N2
Marked response: 7.68

Exam item: Request - read-out pIC50 | tested on Leucine-rich repeat serine/threonine-protein kinase 2 (Homo sapiens, UniProt Q5S007) | compound CCNc1cc(Nc2ccc(S(=O)(=O)N3CCC(N4CCOCC4)CC3)cc2OC)nc2[nH]cc(C(F)(F)F)c12
Marked response: > 7.00

Exam item: Request - read-out pIC50 | tested on Leucine-rich repeat serine/threonine-protein kinase 2 (Homo sapiens, UniProt Q5S007) | compound Cc1cnc(Nc2ccc(OCCN3CCCC3)cc2)nc1NCc1ccco1
Marked response: 6.95

Exam item: Request - read-out pIC50 | tested on Leucine-rich repeat serine/threonine-protein kinase 2 (Homo sapiens, UniProt Q5S007) | compound CNc1cc(Nc2ccc(C(=O)N3CCC(N4CCOCC4)CC3)c3c2OCCO3)nc2[nH]cc(C(F)(F)F)c12
Marked response: > 7.00

Exam item: Request - read-out pIC50 | tested on Leucine-rich repeat serine/threonine-protein kinase 2 (Homo sapiens, UniProt Q5S007) | compound COCc1cc(N2CCN(C)CC2)ccc1Nc1ncc(C(F)(F)F)c(NCCCN2CCCOC2=O)n1
Marked response: 6.22 to 6.52
